assayed.system: Substance-P receptor (Homo sapiens)
experiment.description: Concentration required for displacement of [125I]-labeled substance P from cloned hNK1 receptor expressed in CHO cells
pIC50: −log10 of the molar value.
readout: pIC50

These solved cases illustrate the format of a correct answer.
COc1ccccc1N1CCN(C(=O)CCc2c(-c3ccc(Cl)cc3)[nH]c3ccccc23)CC1: 7.51
Cn1c(-c2ccc(Cl)cc2)c(CCC(=O)N2CCC(O)(Cc3ccccc3)CC2)c2cc(-c3ccccn3)ccc21: 8.77
COc1ccccc1N1CCN(C(=O)CCc2c(-c3ccc(Cl)cc3)[nH]c3ccc(OC(F)(F)F)cc23)CC1: 8.05
Cn1c(-c2ccc(Cl)cc2)c(CCC(=O)N2CCC(O)(Cc3ccccc3)CC2)c2cc(-n3cccc3)ccc21: 8.64
Cn1c(-c2ccc(Cl)cc2)c(CCC(=O)N2CCC(O)(Cc3ccccc3)CC2)c2cc(Cl)ncc21: 9.66

A: Cn1c(-c2ccc(Cl)cc2)c(CCC(=O)N2CCC(O)(Cc3ccccc3)CC2)c2cc(Cl)ccc21
B: Cn1c(-c2ccc(Cl)cc2)c(CCC(=O)N2CCC(O)(Cc3ccccc3)CC2)c2cnccc21
C: COc1ccccc1N1CCN(C(=O)CCc2c(-c3ccc(Cl)cc3)[nH]c3cc(Cl)ccc23)CC1
Query :: List from greatest to least pIC50. Reply with the item labels sorted in the order that was asked for.
Result :: A, C, B

====

Species: Rattus norvegicus
experiment.description: Systemic AUC was determined by pharmacokinetic study conducted in portal vein cannulated rats
Type: ADME, organism-based
experimental.conditions: in vivo
readout: AUC (ng·h/mL)
// note: answer is a bare numeric in ng·h/mL

The compound listed as Cn1c(-c2ccc(Cl)cc2)c(CCC(=O)N2CCC(O)(Cc3ccccc3)CC2)c2cc(Cl)cnc21 has a reported AUC of 8

====

assayed.system: Substance-P receptor (Homo sapiens, UniProt P25103)
Sequence (P25103 whole entry): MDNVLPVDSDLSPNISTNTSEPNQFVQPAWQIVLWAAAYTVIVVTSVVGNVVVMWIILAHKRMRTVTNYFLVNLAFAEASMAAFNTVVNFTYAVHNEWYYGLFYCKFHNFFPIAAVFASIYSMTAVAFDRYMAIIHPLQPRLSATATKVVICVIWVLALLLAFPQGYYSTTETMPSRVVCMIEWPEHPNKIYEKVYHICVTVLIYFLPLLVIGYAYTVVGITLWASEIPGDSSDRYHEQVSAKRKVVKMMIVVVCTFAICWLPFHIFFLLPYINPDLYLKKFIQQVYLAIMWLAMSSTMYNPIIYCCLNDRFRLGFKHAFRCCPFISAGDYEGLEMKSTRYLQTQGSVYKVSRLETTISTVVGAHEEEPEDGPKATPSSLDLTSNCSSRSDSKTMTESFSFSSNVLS
experiment.description: Concentration required for displacement of [125I]-labeled substance P from cloned hNK1 receptor expressed in CHO cells
pIC50: −log10 of the molar value.
readout: pIC50

These solved cases illustrate the format of a correct answer.
Cn1c(-c2ccc(Cl)cc2)c(CCC(=O)N2CCC(O)(Cc3ccccc3)CC2)c2nc(Cl)ccc21: 8.59
COc1ccccc1N1CCN(C(=O)CCc2c(-c3ccc(Cl)cc3)[nH]c3cc(Cl)cc(Cl)c23)CC1: 6.24
COc1ccccc1N1CCN(C(=O)CCc2c(-c3ccccc3)[nH]c3ccc(F)cc23)CC1: 7.06
Cn1c(-c2ccc(Cl)cc2)c(CCC(=O)N2CCC(O)(Cc3ccccc3)CC2)c2cc(N3CCCCC3)ccc21: 8.48
O=C(CCc1c(-c2ccc(Cl)cc2)nc2ccc(Cl)cn12)N1CCC(O)(Cc2ccccc2)CC1: 9.11

A: COc1ccccc1N1CCN(C(=O)CCc2c(-c3ccc(Br)cc3)[nH]c3ccc(C)cc23)CC1
B: Cn1c(-c2ccc(Cl)cc2)c(CCC(=O)N2CCC(O)(Cc3ccccc3)CC2)c2cc(Br)ccc21
Query :: Field: lower recorded pIC50 (choose A or B ) # reply format: chosen label
Result :: A

====

experiment.description: Percent oral bioavailability determined in rats
Format: ADME, organism-based
experimental.conditions: rat, in vivo, read-out: Bioavailabiility
readout: bioavailability (%)
// note: answer is a bare numeric in %

The molecule listed as Cn1c(-c2ccc(Cl)cc2)c(CCC(=O)N2CCC(O)(Cc3ccccc3)CC2)c2cc(Cl)ccc21 has a reported bioavailability of 2.3

====

assayed.system: Substance-P receptor (Homo sapiens, UniProt P25103)
experiment.description: Concentration required for displacement of [125I]-labeled substance P from cloned hNK1 receptor expressed in CHO cells
readout: IC50 (nM)

I: Cn1c(-c2ccc(Cl)cc2)c(CCC(=O)N2CCC(O)(Cc3ccccc3)CC2)c2cc(-c3ccncc3)ccc21
II: COc1ccccc1N1CCN(C(=O)CCc2c(-c3ccc(Cl)cc3)[nH]c3c(Cl)cc(Cl)cc23)CC1
III: COc1ccccc1N1CCN(C(=O)CCc2c(-c3ccc(Cl)cc3)[nH]c3ccc(C)cc23)CC1
Query :: Put the items in sequence by IC50, from largest down. Reply with the item labels sorted in the order that was asked for.
Result :: II, I, III

I: Cn1c(-c2ccc(Cl)cc2)c(CCC(=O)N2CCC(O)(Cc3ccccc3)CC2)c2cc(N3CCOCC3)ccc21
II: COc1ccccc1N1CCN(C(=O)CCc2c(-c3ccc(Cl)cc3)[nH]c3ccc(Cl)cc23)CC1
III: CC(=O)c1ccc2c(c1)c(CCC(=O)N1CCC(O)(Cc3ccccc3)CC1)c(-c1ccc(Cl)cc1)n2C
Query :: List from greatest to least IC50. Reply with the item labels sorted in the order that was asked for.
Result :: I, II, III

I: Cn1c(-c2ccc(Cl)cc2)c(CCC(=O)N2CCC(O)(Cc3ccccc3)CC2)c2cc(-c3ccco3)ccc21
II: COc1ccccc1N1CCN(C(=O)CCc2c(-c3ccccc3)[nH]c3ccc(Cl)cc23)CC1
Query :: Field: lower recorded IC50 (choose I or II ) # reply format: chosen label
Result :: I

====

assayed.system: Substance-P receptor (Homo sapiens, UniProt P25103)
experiment.description: Concentration required for displacement of [125I]-labeled substance P from cloned hNK1 receptor expressed in CHO cells
readout: IC50 (nM)

1: Cn1c(-c2ccc(Cl)cc2)c(CCC(=O)N2CCC(O)(Cc3ccccc3)CC2)c2cc(-c3cccnc3)ccc21
2: COc1ccccc1N1CCN(C(=O)CCc2c(-c3ccc(Cl)cc3)[nH]c3cccc(Cl)c23)CC1
3: C=Cc1ccc2c(c1)c(CCC(=O)N1CCC(O)(Cc3ccccc3)CC1)c(-c1ccc(Cl)cc1)n2C
4: Cn1c(-c2ccc(Cl)cc2)c(CCC(=O)N2CCC(O)(Cc3ccccc3)CC2)c2cc(Cl)cnc21
Query :: Put the items in sequence by IC50, from largest down. Reply with the item labels sorted in the order that was asked for.
Result :: 2, 1, 3, 4
